Each record here notes measured inhibition.
# ASSAYED SYSTEM: Pantothenate synthetase (Mycobacterium tuberculosis) (UniProt P9WIL5)
# PROTOCOL: Inhibition of Mycobacterium tuberculosis pantothenate synthetase at 100 uM
Write it as a number; the unit % goes unstated.

Recorded results for 10 molecules are shown here.
CC(C)(C)C1CCc2onc(C(=O)Nc3cnn(Cc4ccccc4Br)c3)c2C1 (stereo not drawn)	94
CC(C)(C)C1CCc2onc(C(=O)Nc3cnn(Cc4ccc(F)cc4)c3)c2C1 (stereo not drawn)	98
CC(C)(C)C1CCc2onc(C(=O)Nc3cnn(C(=O)c4c(Cl)cc(Cl)cc4Cl)c3)c2C1 (stereo not drawn)	17
CC(C)(C)C1CCc2onc(C(=O)Nc3cnn(Cc4ccccc4I)c3)c2C1 (stereo not drawn)	84
CC(C)(C)C1CCc2onc(C(=O)O)c2C1 (stereo not drawn)	12
CC(C)(C)C1CCc2onc(C(=O)Nc3cnn(Cc4ccc5ccccc5c4)c3)c2C1 (stereo not drawn)	97
CC(C)(C)C1CCc2onc(C(=O)Nc3cn[nH]c3)c2C1 (stereo not drawn)	43
CC(C)(C)C1CCc2onc(C(=O)Nc3cnn(Cc4ccccc4)c3)c2C1 (stereo not drawn)	100
CC(C)(C)OC(=O)c1ccc(Cn2cc(NC(=O)c3noc4c3CC(C(C)(C)C)CC4)cn2)cc1 (stereo not drawn)	79
CC(C)(C)C1CCc2onc(C(=O)Nc3cnn(Cc4ccc(F)cc4F)c3)c2C1 (stereo not drawn)	100

Please turn your attention to the following entry.
[Q] Data request, read-out inhibition, for CC(C)(C)C1CCc2onc(C(=O)Nc3cnn(Cc4ccc(Cl)cc4)c3)c2C1 (stereo not drawn)
[A] 98

====

# System: Mycobacterium tuberculosis
# PROTOCOL: Antibacterial activity against Mycobacterium tuberculosis at 128 uM by MABA assay
# Format: functional
Please enter rule met where inhibition at 128 µM is greater than or equal to 50%, and rule not met where it is lower.

CC(C)(C)C1CCc2onc(C(=O)Nc3cn[nH]c3)c2C1 (configuration not stated)	rule met
COC(=O)c1ccc(Cn2cc(NC(=O)c3noc4c3CC(C(C)(C)C)CC4)cn2)cc1 (configuration not stated)	rule not met
CC(C)(C)C1CCc2onc(C(=O)Nc3cnn(Cc4ccccc4)c3)c2C1 (configuration not stated)	rule met
CC(C)(C)C1CCc2onc(C(=O)O)c2C1 (configuration not stated)	rule not met
CC(C)(C)C1CCc2onc(C(=O)Nc3cnn(C(=O)c4c(Cl)cc(Cl)cc4Cl)c3)c2C1 (configuration not stated)	rule not met

[Q] Has CC(C)(C)C1CCc2onc(C(=O)Nc3cnn(Cc4ccccc4Br)c3)c2C1 (configuration not stated) a recorded inhibition at 128 µM greater than or equal to 50%?
[A] rule met

[Q] Has CC(C)(C)C1CCc2onc(C(=O)Nc3cnn(Cc4ccc5ccccc5c4)c3)c2C1 (configuration not stated) a recorded inhibition at 128 µM greater than or equal to 50%?
[A] rule not met

====

Each record here notes measured pIC50.
# ASSAYED SYSTEM: Pantothenate synthetase (Mycobacterium tuberculosis)
# Sequence (P9WIL5 whole entry): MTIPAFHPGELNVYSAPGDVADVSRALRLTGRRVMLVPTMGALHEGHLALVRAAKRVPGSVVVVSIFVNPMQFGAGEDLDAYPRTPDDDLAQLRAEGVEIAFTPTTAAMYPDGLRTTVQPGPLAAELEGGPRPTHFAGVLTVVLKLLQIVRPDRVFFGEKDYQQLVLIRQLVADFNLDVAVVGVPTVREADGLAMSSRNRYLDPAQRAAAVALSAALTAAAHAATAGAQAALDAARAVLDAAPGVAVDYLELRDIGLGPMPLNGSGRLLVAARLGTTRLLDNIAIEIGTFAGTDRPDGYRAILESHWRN
Schema: pIC50 number; meaning minus log10 of the concentration expressed in molar units.

Recorded results for 2 compounds are shown here.
CC(C)(C)C1CCc2onc(C(=O)Nc3cnn(Cc4ccccc4)c3)c2C1 (stereo not given)	7.01
CC(C)(C)C1CCc2onc(C(=O)Nc3cnn(Cc4ccc(F)cc4F)c3)c2C1 (stereo not given)	6.89

[Q] So what pIC50 did CC(C)(C)C1CCc2onc(C(=O)Nc3cnn(Cc4ccccc4Br)c3)c2C1 (stereo not given) get with Pantothenate synthetase (Mycobacterium tuberculosis)?
[A] 6.85

[Q] So what pIC50 did CC(C)(C)C1CCc2onc(C(=O)Nc3cnn(Cc4ccc(C(=O)O)cc4)c3)c2C1 (stereo not given) get with Pantothenate synthetase (Mycobacterium tuberculosis)?
[A] 6.34
